- protocolText: yeast display, Sf9 membrane polyspecificity reagent, FACS + sequencing; frameworks hold sequencing errors
experimentalReadout: polyreactivity (PSR sort gate)

Consider the following illustrative entries.
QVQLVESGGGLVQAGGSLRLSCASSGIILYYYAMGWYRQAPGKERELVAAIDSGDSTDYADSVKGRFTISRDNAKNTVYLQMNSLKPEDTAVYYCAADSPVDEYYHWGQGTQVTVSS
low polyreactivity
QVQLVESGGGLVQAGGSLRLSCAASGSIFQIYAMGWYRPAPGKERELVAAINSGGITKYADSVKGRFTISRDNAKNTVYLQMNSLKPEDTAVYYCAKRYGWPYGRFDYWGQGTQVTVSS
low polyreactivity
QVQLVESGGGLVQAGGSLRLSCAASGSTFTVNGMGWYRQAPGKERELVASITWSGGSTYYADTVKGRFTISRDNAKNTVYLQMNSLKPEDTAVYYCAADEKLYITGYDYWGQGTQVTVSS
low polyreactivity
QVQLGESGGGLVQAGGSLRLSCAASGSIFTYNPMGWYRQAPGKERELVAAITIDDGSTYYADSVKGRFTISRDNAKNTVYLQMNSLKPEDTAVYYCAADFYGVSYSGGEMDYWGLGTQVTVSS
low polyreactivity
QVQLVESGGGLVQAGGSLRLTCAACGRTFYWYSMGWYRKAPGKERELVATITRTGTRTYYADSVKGRFTISRDNAKNTVYLQMNSLKPEDTAVYYCAAGVIRYGGKEEYYYWGLGTQVTVSS
high polyreactivity
QVHLVESGGGLVQAGGSLRLSCAASGFTFIRYAMGWYRQAPGKETELVAAISVSGGRTYYADSVKGRFTISRDNAKNTVYLQMNSLKPEDTAVYYCARRPSYYQGDYWGQGTQVTVSS
high polyreactivity
QVQLVESGGGLVQAGGSLRLSCAASGSTFNKYTMGWYRQAPGKEREFVAAISRIGGSTYYADSVKGRFTISRDNAKNTVYLQMNSLKPEDTAVYYCATGVRPLRKKPVEFYHWGQGTQVTVSS
low polyreactivity
QVQLVESGGGLDQAGGSLRLSCAASGSTFESNAMGWYRQAPGKERELVAAISWRVGSTYYADSVKGRFTISRDNAKNTDYLQMHSLKPEDTAVYYCASKGWYSHYGGYDYWGQGTQVTVSS
low polyreactivity

Dear reader, for each entry below, please note its polyreactivity (PSR sort gate).
1. QVQLVESGGGLVQAGGSLRLSCAASGRNFYHYAMGWYRQAPGKEREFVAAISVSGGRTYYADSVKGRFTISRDNAKNTVYLQMNSLKPEDTAVYYCAAEPEWPYGRFDYWGQGTQVTVSS
2. QVQLVESGGGLVQAGGSLRLSCAASGSIFGPYAMGWYRQAPGKERELVATITTNGGSTYYADSVKGRFTISRDNAKNTVYLQMNSLKPEDTAVYYCATQHTDYVGAATTYNYWGQGTQVTVSS
3. QVQLVESGGGLDQAGGSLRLSCAASGSTFRYSVMGWSRQAPGKERELVAGISYRGGTTYYADSVKGRFTISRDNAKNTVYLQMNSLKPEDTAVYYCAADSTPYVLSGNYDYWGQGTQVTVSS
4. QVQLVESGGGLVQAGGSLRLSCAASGRIFPRNTMGRYRQAPGKERELVAGITSGGGTYYADSVKGRFTISRDNAKNTVYFQMNRLKPEDTAVFYCAARPWRSRYYGGLGRRFDYWGQGTQVTVSS
5. QVQLVESAGGLVQAGGSLRLSCSASGSTFSSNGMGWYRKAPGKERELVAAITSVGSTNYADSVKGRFTISRDNAKNTVYLQMNSLKPEDTAVYYCNAERTAYGGGDYWGQGTQVTVSS
6. QDQLVESGGGLRQAGGSLRLSCAASGPTFFVYAMGWYTQAPGKERELVAAISWNGGSTFYADSVKGRFTISRDNAKNTVYIQMNSLNPEDTAVYYCAAVESRGWGGYGYWGQGTQVTVSS
7. QVQLVESGGGLVQAGGSLRLSCAASGFIFRAYTMGWYRQAPGKERELVAAITSSGGRTYYADSVKGRFTISRDNAKNTVYLQMNSLKPEDTAVYYCATVYAKWKQFDYWGQGTQVTVSS

["high polyreactivity", "low polyreactivity", "low polyreactivity", "high polyreactivity", "low polyreactivity", "high polyreactivity", "high polyreactivity"]
